Target: T1, human PACAP38 (human, not fully specified; C-terminal lysine is amidated; N-terminal or C-terminal biotin in the HTRF and PC-12 cell binding assays)
T1 construct: synthetic peptide, bought; also called huPACAP (1-38)
T1 peptide: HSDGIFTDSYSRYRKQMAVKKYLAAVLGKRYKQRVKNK
Assay: SPR, Ab immobilised
The entries below come with measured koff values attached.
Respond numerically; units are s⁻¹ and should not be typed.

See these solved cases before continuing.
binder	output unit	experimental result
anti-PACAP antibody Ab23 (antibody, human IgG1, kappa, N297A, V domains shown, full-length rabbit/human chimeric antibody; PACAP38 specific) VH: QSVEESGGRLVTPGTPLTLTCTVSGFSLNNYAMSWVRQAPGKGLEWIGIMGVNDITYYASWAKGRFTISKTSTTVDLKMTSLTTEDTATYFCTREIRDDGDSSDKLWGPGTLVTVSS VL: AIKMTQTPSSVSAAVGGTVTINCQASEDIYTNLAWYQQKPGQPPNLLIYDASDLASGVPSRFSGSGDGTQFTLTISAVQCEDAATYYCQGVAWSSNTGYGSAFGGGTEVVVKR	s⁻¹	3.6e-05
anti-PACAP antibody Ab9 (antibody, human IgG1, kappa, N297A, V domains shown, full-length rabbit/human chimeric antibody) VH: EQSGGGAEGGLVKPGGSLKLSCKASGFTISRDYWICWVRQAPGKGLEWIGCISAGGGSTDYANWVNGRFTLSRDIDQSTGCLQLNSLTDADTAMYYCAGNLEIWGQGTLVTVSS VL: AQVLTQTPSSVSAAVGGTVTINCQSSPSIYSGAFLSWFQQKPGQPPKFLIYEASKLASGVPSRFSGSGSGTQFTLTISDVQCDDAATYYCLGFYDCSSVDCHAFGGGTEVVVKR	s⁻¹	0.00011

For the next question, use this binder.
Ask: Identify measured koff corresponding to anti-PACAP antibody Ab9.H (antibody, human IgG1, kappa, N297A, V domains shown, humanized form of Ab9, full length) VH: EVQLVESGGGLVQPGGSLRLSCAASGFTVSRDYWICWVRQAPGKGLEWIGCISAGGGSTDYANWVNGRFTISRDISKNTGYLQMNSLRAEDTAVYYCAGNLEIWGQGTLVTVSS VL: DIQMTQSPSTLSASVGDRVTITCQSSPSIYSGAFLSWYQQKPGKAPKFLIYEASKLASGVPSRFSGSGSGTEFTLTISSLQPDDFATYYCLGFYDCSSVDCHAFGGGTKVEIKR
Reply: 6.1e-05
